Data credit: PubChem BioAssay (NCI)

# Tested on: MALME-3M melanoma
# experiment_description: NCI tumour cell line growth inhibition, 48 h
Collected TGI values appear next to each entry.

Below, 5 compounds whose answers are already recorded.
> print(dat)
                                   compound  reported.property  meas.value
1  Cn1ccc2c(NCCN)c3c(c(NCCN)c21)C(=O)c1ccccc1C3=O                TGI     15.2 µM
2  CCOc1cc2c(cnc3c4cc(OC)c(OC)cc4ccc23)cc1OC                TGI    > 100 µM
3  N#CC(c1nc2ccccc2s1)c1nc(Cl)ncc1Br (centres undefined)                TGI    > 100 µM
4  C=C(C)[C@@H]1CC[C@]2(CO)CC[C@]3(C)[C@H](CC[C@@H]4[C@@]5(C)CC[C@H](O)C(C)(C)[C@@H]5CC[C@]43C)[C@@H]12                TGI    > 100 µM
5                           CN(C)CCCN=C(N)N                TGI    > 100 µM

Query block: Dear colleague, I am looking for the recorded TGI of the following compound: CC(=O)[C@H]1CC[C@H]2[C@@H]3CCC4=CC(=O)CC[C@]4(C)[C@H]3CC[C@]12C
Result block: 35.8 µM

Query block: Tell me the measured TGI of CCSCC(=O)N1CCc2c([nH]c3ccccc23)C1=O , please.
Result block: > 100 µM

Query block: Field request: TGI | item: COC(=O)c1ccc(CCC2=CC(=O)C(Br)=CC2=O)cc1
Result block: 30.6 µM

Query block: Need TGI of N#CC1=C(N)N=C(N2CCCCC2)C(C#N)C12Nc1ccccc1S2 (centres undefined) , thanks.
Result block: > 100 µM

Query block: Form field: reported TGI of N#CCc1ccc(C(C#N)/C(CCCC(=O)Nc2cccc([N+](=O)[O-])c2)=N\NC(=O)NN)cc1 (centres undefined)
Result block: > 100 µM

Query block: Looking for the measured TGI of COc1ccc(/C=C2\Sc3nnc(C)n3N=C2c2cc(F)c(Cl)cc2Cl)cc1OC , can you help?
Result block: 37.1 µM

* * *

# Tested on: NCI-H460 lung
# experiment_description: NCI tumour cell line growth inhibition, 48 h
reported_property: TGI

Worked cases, TGI given:
> print(dat)
                                   compound    test.system  meas.value
1  CC(=O)c1cc2c(s1)C(=O)c1scc(C(C)=O)c1C2=O  NCI-H460 lung     1.27 µM
2  Cc1ccc(S(=O)(=O)NC(=O)NC(Cc2ccccc2)C(=O)O)cc1 (stereo not given)  NCI-H460 lung    > 100 µM
3  Cc1ccccc1CN1CC2=C(CCN(Cc3ccccc3)C2=O)N2CCN=C12  NCI-H460 lung    > 100 µM
4  COc1cc2c(c(OC)c1OC)-c1ccc(SC)c(=O)cc1[C@@H](NC(=O)c1ccc(OC(C)=O)cc1)CC2  NCI-H460 lung   0.0206 µM

Query block: # query: TGI of entry O=C(CNC(=O)OCc1ccccc1)Oc1ccccc1
Result block: > 100 µM

Query block: For the compound COC(=O)/C=C(C)/C=C/c1cc(C(C)=O)c(C)o1 , what TGI is on record?
Result block: > 100 µM

Query block: Please give the measured TGI for this compound: CCCCCNC(=O)[C@@H]1CCCN2C(=O)CC[C@H](NC(=O)[C@H](Cc3ccc(OP(=O)(O)O)cc3)NC(C)=O)C(=O)N12
Result block: > 25 µM

Query block: Name the recorded TGI for C=C(Cl)COC(=O)Nc1cccc(Cl)c1 .
Result block: > 100 µM

Query block: Could you tell me which TGI is on file for N#Cc1ccc(OC(=O)c2ccc(N=C(N)N)cc2)cc1 ?
Result block: > 100 µM

Query block: Which value of TGI has been reported for c1cc2c(cc1C(N1CCNCC1)N1CCNCC1)OCO2 in the records?
Result block: > 100 µM

Query block: So what's the measured TGI for this one? O=c1[nH]c(=S)c2cc3c(=S)[nH]c(=O)n(CCC(c4ccccc4)(c4ccccc4)c4ccccc4)c3nc2n1CCC(c1ccccc1)(c1ccccc1)c1ccccc1
Result block: > 100 µM

* * *

Examples of compounds with documented TGI follow.
# System: A549 NSCLC
# experiment_description: NCI tumour cell line growth inhibition, 48 h

Below, each entry is followed by its recorded TGI result.
> print(dat)
                                   compound  test.system  meas.value
1  OC12C3C4CC5C(C4[C@@H]1Br)C2[C@@](O)(c1c(F)c(F)c(F)c(F)c1F)C53 (stereo not given in full)   A549 NSCLC    > 100 µM
2  C=C1CC[C@@]2(C#N)[C@H]3[C@H](CC[C@@H]2C)[C@@H](C)C[C@@H](CC(C)(C)C#N)[C@H]13   A549 NSCLC     34.8 µM
3  O=C1CCCCCCCCCCC(=O)C2CCOCCOCCOCCC1Cc1cccc(n1)C2   A549 NSCLC    > 100 µM
4  CCCN=C1Nc2ccccc2[C@@H]2N(C)c3ccccc3C(C)C[C@]12C (stereo not given in full)   A549 NSCLC    > 100 µM

Here is the next item to consider.
Query block: Entry COc1ccc(C2c3cc4c(cc3OC(NNC(N)=O)C2C)OCO4)cc1 (stereo not given) has what TGI?
Result block: > 100 µM

* * *

# Test system: COLO 205 colon
# experiment_description: NCI tumour cell line growth inhibition, 48 h
List of TGI values.

Example compounds with recorded TGI:
> print(dat)
                                   compound  meas.value
1  O=C(Nc1ccc(-n2cc(-c3ccncc3)c(-c3ccc(Cl)c(O)c3)n2)cc1)Nc1cc(C(F)(F)F)cc(C(F)(F)F)c1     2.81 µM
2  CC1(CO)OC1COCc1ccccc1 (stereo not given)    > 100 µM
3  O=C1C(=Cc2ccco2)C(=O)C2CCCCC12 (stereo not given)    > 100 µM

Query block: Any idea what TGI was measured for N#Cc1ccc(/C=N/NC(=O)CSCC(=O)N/N=C/c2ccc(C#N)cc2)cc1 ?
Result block: > 100 µM

Query block: Form field: reported TGI of C=C1CC[C@@]2(C#N)[C@H]3[C@H](CC[C@@H]2C)[C@@H](C)C[C@@H](CC(C)(C)C#N)[C@H]13
Result block: 14.4 µM

Query block: Quick one: TGI for NNC(=Nc1ccccc1)SCc1ccccc1 ?
Result block: > 100 µM

* * *

# System: NCI-H522 lung
# experiment_description: NCI tumour cell line growth inhibition, 48 h
Binning of TGI into classes: class A: < 4 µM; class B: ≥ 4 µM and < 40 µM; class C: ≥ 40 µM

Solved entries (count: 2):
molecule	group_label
CCSCC(=O)N1CCc2c([nH]c3ccccc23)C1=O	class C
Cc1ccc(S(=O)(=O)NC(=O)NC(Cc2ccccc2)C(=O)O)cc1 (centres undefined)	class C

Query block: // return the class label for O=c1[nH]nc(Cc2ccccc2)n1/N=C/c1ccc([N+](=O)[O-])o1
Result block: class A

Query block: Could you place COC(=O)c1c(C)ccc2c(O)c3c(cc12)C(=O)c1c2c(cc(O)c1C3=O)C1(C)OC(C)(O2)C(O)C(N(C)C)C1O (centres undefined) in its proper category? Many thanks.
Result block: class A

Query block: Which band does COc1ccc(C(=O)C(c2ccc(OC)cc2)C2(O)C(=O)Nc3c(C)cc(Cl)cc32)cc1 (centres undefined) fall in?
Result block: class C

Query block: Returns: class label. Input: O=C(CNC(=O)OCc1ccccc1)Oc1ccccc1
Result block: class C

Query block: Class for O=C(Nc1ccc(Cl)cc1)c1cccc([N+](=O)[O-])c1O ?
Result block: class B

Query block: // bin(item) where item = COc1cc(Cl)cc(-c2nn(C(=O)NCCN3CCN(C)CC3)cc2-c2ccncc2)c1
Result block: class C

Query block: Which category fits this record: N#CC1=C(N)NC(=S)NC12Nc1ccccc1O2 (centres undefined)
Result block: class C

Query block: Pick a category. Item: O=C1C(=Cc2ccco2)C(=O)C2CCCCC12 (centres undefined)
Result block: class C

Query block: Band assignment needed for CC1=NC2(CCCCC2)N(Cl)C(=O)C1SC#N (centres undefined) please.
Result block: class B

Query block: Hi there! Could you help me figure out the category for C[C@@H]1O[C@@H](O[C@@H]2[C@@H](O)[C@H](OCCc3ccc(O)c(O)c3)O[C@H](COC(=O)/C=C/c3ccc(O)c(O)c3)[C@H]2O)[C@H](O)[C@H](O)[C@H]1O please?
Result block: class C

Query block: Determine which band this molecule sits in: O=C1c2cc([N+](=O)[O-])cnc2S(=O)(=O)N1c1ccc(Br)cc1
Result block: class C

Query block: Please report the category associated with NNC(=Nc1ccccc1)SCc1ccccc1 , nothing else.
Result block: class C

Query block: Class (by measured TGI) for Cc1c(C)c2c(c(N)c1C#N)C(=O)N(OS(=O)(=O)c1ccccc1)C2=O
Result block: class B

Query block: Textbook exercise: identify the category of the molecule given here, O=c1c(/C=C/c2c(O)ccc3ccccc23)nnc2sc(-c3cccc([N+](=O)[O-])c3)nn12 , according to its measured value.
Result block: class B

Query block: Class for COc1ccc(OC)c(C(=O)/C=C/c2cc(O)c(O)cc2F)c1 ?
Result block: class A

Query block: State the class of the molecule shown: Cn1nc(-c2ccccc2)c(N=[N+]=[N-])cc1=O
Result block: class C

Query block: Input CCOC(=O)c1[nH]cnc1/N=N/N(C)N ; output its category
Result block: class C

Query block: Just checking, what class would you give O=C1OC(C2Cc3ccccc3C2=O)c2ccccc21 (centres undefined) here?
Result block: class C

Query block: // bin(item) where item = CCOc1cc2c(cnc3c4cc(OC)c(OC)cc4ccc23)cc1OC
Result block: class C

Query block: Lab note: which band did Nc1ccc(C(=O)c2ccc(N)c(Br)c2)cc1Br land in?
Result block: class A
